target: BACE1 enzyme (soluble, truncated BACE enzyme, BACE1deltaTM96His) (Homo sapiens); construct: soluble, truncated BACE enzyme (BACE1deltaTM96His); His; made in house; assay: BACE1 Fluorescent Polarization (FP) Assay; format: biochemical; details: 8-point curve; geometric mean of 2-4 IC50 determinations unless footnoted (^2: 5-6 determinations; ^4: single determination); read-out: BACE activity, 8-point curve, IC50
Sequence (P56817 46-457): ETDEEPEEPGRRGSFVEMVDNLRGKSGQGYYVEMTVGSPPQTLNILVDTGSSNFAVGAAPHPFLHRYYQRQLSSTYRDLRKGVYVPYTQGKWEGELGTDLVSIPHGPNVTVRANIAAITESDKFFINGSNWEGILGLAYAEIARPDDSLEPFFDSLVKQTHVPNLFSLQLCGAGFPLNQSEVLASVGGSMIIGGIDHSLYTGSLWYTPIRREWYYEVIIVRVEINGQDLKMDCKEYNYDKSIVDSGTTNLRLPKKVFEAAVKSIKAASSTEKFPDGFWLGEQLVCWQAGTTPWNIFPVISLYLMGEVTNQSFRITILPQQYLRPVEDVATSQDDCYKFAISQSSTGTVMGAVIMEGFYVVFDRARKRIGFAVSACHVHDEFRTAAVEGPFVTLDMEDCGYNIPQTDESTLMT
Structures can show the parent of a compound that is named as a salt.
The following compounds are listed with their measured IC50 values.
Write it as a number; the unit nM goes unstated.

{"compound": "C[C@H]1C[C@@]2(C=CS(=O)(=O)N2c2cccc(F)c2)CCN1Cc1ncoc1-c1cncc(F)c1 [Example 40, hydrochloride salt]", "unit_of_measure": "nM", "assay_result": 1380}
{"compound": "CC(C)Oc1cc(CN2CC[C@]3(C=CS(=O)(=O)N3c3cccc(F)c3)C[C@@H]2C)ccc1O", "unit_of_measure": "nM", "assay_result": 23.5}

Here is the next item to consider.
q: Assign IC50 to the following record: Cc1ccccc1-c1cccc(CN2CC[C@]3(C=CS(=O)(=O)N3c3cccc(F)c3)C[C@@H]2C)c1
a: 53.3

Values compiled from patent US20130150376A1.
